- assay system: human SOS1 (nucleotide exchange of K-Ras^G12C) (Homo sapiens, UniProt Q07889)
- experiment summary: Biochemical assay 2: K-Ras^G12C activation assay by hSOS1 at high GTP concentration (HTRF)
- condition context: high GTP; read-out: Assay 2 (KRAS-Activation by SOS high GTP) activity expressed as IC50
Let's look at some molecules and their measured log10 of IC50.
Could you please treat all values as log10 of IC50 in µM?

Take a look at these entries with their results.
* COc1cc2nc(C)nc(NC(C)c3ccc(-c4ccccc4CNCCO)s3)c2cc1OC (centres unmarked) | -1.24
* COc1cc2nc(C)nc(N[C@H](C)c3cccc(-n4cccn4)c3)c2cc1OC | 0.57
* COC(=O)c1ccccc1-c1ccc(C(C)Nc2nc(C)nc3cc(OC)c(OC)cc23)s1 (centres unmarked) | 0.71
* COc1cc2nc(C)nc(N[C@H](C)c3cccc(-c4cccc(/C=C/C#N)c4)c3)c2cc1OC | 0.20
* COc1cc2nc(C)nc(N[C@H](C)c3cccc(-c4ccc(NC(=O)OC(C)(C)C)cc4)c3)c2cc1OC | 0.56
* COc1cc2nc(C)nc(NC(C)c3ccc(-c4ccccc4CNCc4ccccc4)s3)c2cc1OC (centres unmarked) | -0.52

query: Under human SOS1 (nucleotide exchange of K-Ras^G12C) (Homo sapiens, UniProt Q07889), report log10 of IC50 for COc1cc2nc(C)nc(NC(C)c3c(F)ccc4[nH]ncc34)c2cc1OC (centres unmarked)
result: 0.89

query: Give reported log10 of IC50 for COc1cc2nc(C)nc(N[C@@H](C)c3ccc(-c4ccc(C(C)=O)s4)s3)c2cc1OC (racemic) (human SOS1 (nucleotide exchange of K-Ras^G12C) (Homo sapiens, UniProt Q07889))
result: 1.06

---

- assay system: human SOS1 (loading of human K-Ras^G12C-GDP with fluorescent GTP-analog) (Homo sapiens, UniProt Q07889)
- experiment summary: Biochemical assay 3: K-Ras^G12C activation assay by hSOS1 (HTRF)
- condition context: E-notation values; unit inferred; read-out: Assay 3 (KRAS-Activation) IC50
readout label: pIC50
The scale used: pIC50 is minus the common logarithm of the concentration in molar units.

- CNCc1ccccc1-c1sc(C(C)Nc2nc(C)nc3cc(OC)c(OC)cc23)cc1C (centres unmarked) [Example 402]: 7.01

// moving on: another record for pIC50
query: Could you please provide reported pIC50 for Cc1nc(NC(C)c2ccc(-c3ccccc3CN(C)C)s2)c2cc(N3CCN(C)C(=O)C3)ccc2n1 (centres unmarked) [Example 435] ? Thanks!
result: 7.16

---

- assay system: K-Ras^G12C : hSOS1 interaction (Homo sapiens)
- experiment summary: Biochemical assay 1: K-Ras^G12C interaction assay with hSOS1 (HTRF)
- Assay type: binding
- condition context: E-notation values; unit inferred; read-out: Assay 1 (KRAS-SOS interaction) IC50
readout label: pIC50
// pIC50 here means minus log10 of the molar concentration (mol/L)

query: Given COc1cc2nc(C)nc(NC(C)c3ccc(-c4ccccc4C(O)C(F)(F)F)s3)c2cc1OC (centres unmarked) , report its pIC50 on K-Ras^G12C : hSOS1 interaction (Homo sapiens).
result: 6.03

query: Jot down pIC50 (K-Ras^G12C : hSOS1 interaction (Homo sapiens)) of CNCc1ccccc1-c1sc(C(C)Nc2nc(C)nc3cc(OC)c(OC)cc23)cc1C (centres unmarked) .
result: 7.08

query: Identify measured pIC50 obtained with K-Ras^G12C : hSOS1 interaction (Homo sapiens) for `Cc1ccc2nc(C)nc(N[C@H](C)c3cccc(Cl)c3)c2c1` .
result: 5.33

query: Quote K-Ras^G12C : hSOS1 interaction (Homo sapiens) pIC50 for entry COc1ccc(-c2ccc(C(C)Nc3nc(C)nc4cc(OC)c(OC)cc34)s2)c(C)c1 (centres unmarked) .
result: 5.83

query: Give pIC50 for COc1cc2nc(C)nc(NC(C)c3sc(Br)cc3Cl)c2cc1OC (centres unmarked) tested on K-Ras^G12C : hSOS1 interaction (Homo sapiens).
result: 6.04

query: Quote K-Ras^G12C : hSOS1 interaction (Homo sapiens) pIC50 for entry COc1cc2nc(C)nc(NC(C)c3ccc(-c4ccccc4CC(N)=O)s3)c2cc1OC (centres unmarked) .
result: 6.39

query: // fetch pIC50 for Cc1nc(NC(C)c2ccc(-c3ccccc3CN(C)C)s2)c2cc(N)ccc2n1 (centres unmarked) ; system: K-Ras^G12C : hSOS1 interaction (Homo sapiens)
result: 6.69

query: Give measured pIC50 for CCCCC(O)c1ccccc1-c1ccc(C(C)Nc2nc(C)nc3cc(OC)c(OC)cc23)s1 (centres unmarked) (K-Ras^G12C : hSOS1 interaction (Homo sapiens)).
result: 5.29
